- Tgt: Stb4 (UniProt P50104)
- Sequence (P50104 whole entry): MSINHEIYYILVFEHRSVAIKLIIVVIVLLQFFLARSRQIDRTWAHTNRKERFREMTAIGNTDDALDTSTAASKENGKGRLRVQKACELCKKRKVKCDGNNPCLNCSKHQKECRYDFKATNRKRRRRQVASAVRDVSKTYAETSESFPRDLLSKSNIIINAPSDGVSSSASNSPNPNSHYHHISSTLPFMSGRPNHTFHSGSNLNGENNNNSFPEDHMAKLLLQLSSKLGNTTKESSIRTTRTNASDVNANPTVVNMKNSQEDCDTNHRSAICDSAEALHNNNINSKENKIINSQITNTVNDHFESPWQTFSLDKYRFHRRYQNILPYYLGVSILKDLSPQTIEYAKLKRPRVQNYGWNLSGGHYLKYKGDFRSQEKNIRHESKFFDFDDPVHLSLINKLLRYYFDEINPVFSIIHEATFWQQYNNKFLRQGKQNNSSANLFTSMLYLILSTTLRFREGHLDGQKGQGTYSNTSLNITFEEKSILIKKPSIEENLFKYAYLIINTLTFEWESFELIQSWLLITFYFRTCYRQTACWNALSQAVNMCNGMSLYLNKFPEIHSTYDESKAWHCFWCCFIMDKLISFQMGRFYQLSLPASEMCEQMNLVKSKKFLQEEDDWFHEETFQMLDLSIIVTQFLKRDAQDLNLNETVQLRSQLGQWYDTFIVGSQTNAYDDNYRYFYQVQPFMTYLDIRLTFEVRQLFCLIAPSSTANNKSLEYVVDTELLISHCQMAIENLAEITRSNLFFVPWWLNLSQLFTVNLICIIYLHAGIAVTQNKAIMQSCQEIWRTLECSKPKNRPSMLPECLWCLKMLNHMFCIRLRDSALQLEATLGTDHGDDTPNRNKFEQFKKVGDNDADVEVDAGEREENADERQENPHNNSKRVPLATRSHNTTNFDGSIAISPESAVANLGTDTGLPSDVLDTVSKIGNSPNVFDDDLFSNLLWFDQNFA
- Assay Comment: PBM E-score (8-mer binding enrichment) (E-score (-0.5 to 0.5)); higher = stronger / more preferred TF binding
- Condition Set: protein concentration: 200 nM; construct: GST-DNA-binding domain
Over roughly 33,000 sequences, “E-score (-0.5 to 0.5)” has its median near -0.056; the highest 2% begin near 0.38. Many of the other results were omitted from the sample, so the highest values are more common in it than they were.
Group membership follows PBM E-score per the scheme lower band (below -0.07), central band (-0.07 to below 0.1), upper band (0.1 or more)

Incoming: Class (by measured PBM E-score) for `AACTGTCC`
Outgoing: central band

Incoming: Class (by measured PBM E-score) for `AGATCGAT`
Outgoing: lower band

Incoming: Class (by measured PBM E-score) for `AACGGAAA`
Outgoing: upper band

Incoming: Class (by measured PBM E-score) for `GGTGAGTA`
Outgoing: lower band

Incoming: Class (by measured PBM E-score) for `CTAGCCCC`
Outgoing: central band

Incoming: Class (by measured PBM E-score) for `CGGATGTA`
Outgoing: upper band

Incoming: Class (by measured PBM E-score) for `GTTGGAAA`
Outgoing: central band

Incoming: Class (by measured PBM E-score) for `CGGATGAA`
Outgoing: upper band

Incoming: Class (by measured PBM E-score) for `AGCATTTC`
Outgoing: central band

Incoming: Class (by measured PBM E-score) for `GTCAGAAA`
Outgoing: lower band

Incoming: Class (by measured PBM E-score) for `CGGAAAAC`
Outgoing: upper band

Incoming: Class (by measured PBM E-score) for `AATTGAAG`
Outgoing: central band

Incoming: Class (by measured PBM E-score) for `CGGATGAG`
Outgoing: upper band

Incoming: Class (by measured PBM E-score) for `CGGAAAAA`
Outgoing: upper band

Incoming: Class (by measured PBM E-score) for `AGATAAAC`
Outgoing: central band

Incoming: Class (by measured PBM E-score) for `CGGATGTC`
Outgoing: upper band

Incoming: Class (by measured PBM E-score) for `ACCTCTAC`
Outgoing: central band

Incoming: Class (by measured PBM E-score) for `ACTCATCT`
Outgoing: lower band

Incoming: Class (by measured PBM E-score) for `CACGGAAA`
Outgoing: upper band

Incoming: Class (by measured PBM E-score) for `AAGGACTC`
Outgoing: upper band

Incoming: Class (by measured PBM E-score) for `AGCGGAAA`
Outgoing: upper band

Incoming: Class (by measured PBM E-score) for `CTATCGAG`
Outgoing: lower band

Incoming: Class (by measured PBM E-score) for `CACGGTGG`
Outgoing: central band

Incoming: Class (by measured PBM E-score) for `AGCATCAA`
Outgoing: lower band

Incoming: Class (by measured PBM E-score) for `GGGATGTA`
Outgoing: upper band

Incoming: Class (by measured PBM E-score) for `CGTTAGCA`
Outgoing: central band

Incoming: Class (by measured PBM E-score) for `GATCACCA`
Outgoing: central band

Incoming: Class (by measured PBM E-score) for `AATACAGT`
Outgoing: lower band

Incoming: Class (by measured PBM E-score) for `CGATCAAA`
Outgoing: central band

Incoming: Class (by measured PBM E-score) for `ACCTTCCG`
Outgoing: upper band

Incoming: Class (by measured PBM E-score) for `CAATGTCC`
Outgoing: central band

Incoming: Class (by measured PBM E-score) for `CAGGAAAG`
Outgoing: lower band

Incoming: Class (by measured PBM E-score) for `AGGATGTC`
Outgoing: lower band

Incoming: Class (by measured PBM E-score) for `ATAGCAAT`
Outgoing: lower band

Incoming: Class (by measured PBM E-score) for `GCCCAGGA`
Outgoing: lower band

Incoming: Class (by measured PBM E-score) for `GGGAAATA`
Outgoing: upper band

Incoming: Class (by measured PBM E-score) for `CGGAAAAG`
Outgoing: upper band

Incoming: Class (by measured PBM E-score) for `AGGATGAA`
Outgoing: lower band

Incoming: Class (by measured PBM E-score) for `AGCATTCA`
Outgoing: central band

Incoming: Class (by measured PBM E-score) for `AGGATGTA`
Outgoing: lower band
